For each of the sequences below, state its PBM E-score.
- system tested: Ecm22 (UniProt Q05958)
- Sequence: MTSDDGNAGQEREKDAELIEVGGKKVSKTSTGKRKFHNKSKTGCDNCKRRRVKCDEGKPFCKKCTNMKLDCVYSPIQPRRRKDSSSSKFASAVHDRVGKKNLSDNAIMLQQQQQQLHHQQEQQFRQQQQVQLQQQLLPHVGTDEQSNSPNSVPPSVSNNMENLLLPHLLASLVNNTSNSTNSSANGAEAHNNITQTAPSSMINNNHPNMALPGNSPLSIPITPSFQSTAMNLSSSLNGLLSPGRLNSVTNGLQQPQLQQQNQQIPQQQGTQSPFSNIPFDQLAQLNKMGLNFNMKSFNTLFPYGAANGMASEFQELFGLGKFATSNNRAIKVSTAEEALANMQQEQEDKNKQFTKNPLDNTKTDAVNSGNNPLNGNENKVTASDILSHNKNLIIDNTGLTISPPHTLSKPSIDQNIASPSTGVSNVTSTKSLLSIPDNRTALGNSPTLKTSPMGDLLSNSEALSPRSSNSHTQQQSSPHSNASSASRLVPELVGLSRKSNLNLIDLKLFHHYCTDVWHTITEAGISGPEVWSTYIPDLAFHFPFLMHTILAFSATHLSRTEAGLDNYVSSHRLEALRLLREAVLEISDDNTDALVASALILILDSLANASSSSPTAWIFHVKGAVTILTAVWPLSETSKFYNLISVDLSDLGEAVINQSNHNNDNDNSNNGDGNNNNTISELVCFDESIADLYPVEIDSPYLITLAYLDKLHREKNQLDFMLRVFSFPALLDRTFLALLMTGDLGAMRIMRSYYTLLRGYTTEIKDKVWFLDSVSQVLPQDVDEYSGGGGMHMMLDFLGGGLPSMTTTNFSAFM
- test protocol: PBM E-score (8-mer binding enrichment) (E-score (-0.5 to 0.5)); higher = stronger / more preferred TF binding
- applied conditions: protein concentration: 200 nM; construct: GST-full length
Over roughly 33,000 sequences, “E-score (-0.5 to 0.5)” has its median near -0.041; the highest 2% begin near 0.37. The sample as a whole holds a higher share of the highest values than the screen did.
Numbers only.

Study these solved cases before continuing.
>  <sequence text>
ACTTACGC

>  <system tested>
Ecm22 (UniProt Q05958)

>  <PBM E-score>
-0.137

$$$$
>  <sequence text>
CGATAGCG

>  <system tested>
Ecm22 (UniProt Q05958)

>  <PBM E-score>
0.128

$$$$

Please give PBM E-score for each item listed below.
1. GGCAACCA
2. ACGAGAGA
3. ACGGCGAC

1: -0.0847; 2: 0.353; 3: 0.21

Take each entry in turn and give its PBM E-score.
1. AGCAACGA
2. ACGAGATA
3. AATACTAG
4. CCTTACGA
5. CGCAACAA
6. ACTTACGA
7. AACTAACG

0.407
0.346
0.0461
0.383
0.0504
0.393
0.141

Go through the items and report each one's PBM E-score.
1. CGCAACGA
2. ACGGCGAG
3. AGCAACGG

[0.448, 0.214, 0.203]

Dear reader, for each entry below, please note its PBM E-score.
1. CCTTACTA
2. GGCAACGA

1. 0.0754
2. 0.417
